Attribution: patent US9440957B2

TARGET_DESC: HCC827 (Del E746-A750) (Homo sapiens, UniProt P00533, DEL746-750)
Sequence (P00533 with tags, fused parts or gaps DEL746-750): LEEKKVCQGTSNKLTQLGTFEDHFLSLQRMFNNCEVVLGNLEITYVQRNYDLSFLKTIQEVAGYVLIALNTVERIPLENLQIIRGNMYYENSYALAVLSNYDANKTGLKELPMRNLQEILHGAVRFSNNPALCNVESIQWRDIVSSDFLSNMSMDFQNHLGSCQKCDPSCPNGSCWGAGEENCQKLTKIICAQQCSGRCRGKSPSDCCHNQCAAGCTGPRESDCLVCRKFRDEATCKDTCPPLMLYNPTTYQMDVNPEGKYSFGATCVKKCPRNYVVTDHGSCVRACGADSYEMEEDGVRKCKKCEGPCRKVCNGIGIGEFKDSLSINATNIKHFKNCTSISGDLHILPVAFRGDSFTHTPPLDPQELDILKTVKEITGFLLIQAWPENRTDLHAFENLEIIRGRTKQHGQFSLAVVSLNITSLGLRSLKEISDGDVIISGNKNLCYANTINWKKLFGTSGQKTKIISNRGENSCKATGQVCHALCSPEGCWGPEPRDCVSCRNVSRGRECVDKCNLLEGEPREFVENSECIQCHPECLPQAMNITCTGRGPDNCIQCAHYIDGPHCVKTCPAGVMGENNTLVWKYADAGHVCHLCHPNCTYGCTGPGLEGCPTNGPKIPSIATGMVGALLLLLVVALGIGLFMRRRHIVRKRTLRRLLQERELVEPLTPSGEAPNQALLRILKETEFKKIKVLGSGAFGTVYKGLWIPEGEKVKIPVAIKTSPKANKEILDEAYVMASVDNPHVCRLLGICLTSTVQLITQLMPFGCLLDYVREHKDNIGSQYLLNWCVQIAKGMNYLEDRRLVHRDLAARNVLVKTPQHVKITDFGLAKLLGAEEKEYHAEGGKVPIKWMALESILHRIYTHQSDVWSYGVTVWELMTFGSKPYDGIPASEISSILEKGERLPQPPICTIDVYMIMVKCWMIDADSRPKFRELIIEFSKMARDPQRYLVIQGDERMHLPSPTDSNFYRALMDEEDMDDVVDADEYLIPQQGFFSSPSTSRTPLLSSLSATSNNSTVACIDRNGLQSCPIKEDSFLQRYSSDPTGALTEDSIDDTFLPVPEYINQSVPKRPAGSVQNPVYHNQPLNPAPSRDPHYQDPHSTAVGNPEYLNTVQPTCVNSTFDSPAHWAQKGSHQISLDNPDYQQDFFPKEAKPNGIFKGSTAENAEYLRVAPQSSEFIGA
PROTOCOL_DESCRIPTION: EGFR target modulation in HCC827 cell line (phospho-EGFR Y1173 ELISA)
Type: cell-based
ASSAY_READOUT: IC50 (nM)

1 = C/C=C/C(=O)N1CCCC[C@@H](n2c(NC(=O)c3ccnc(C)c3)nc3ccc(OCCN4CCCC4)c(Cl)c32)C1
2 = Cc1cc(C(=O)Nc2nc3cccc(Cl)c3n2[C@@H]2CCCCN(C(=O)/C=C/CN3CC(F)(F)C3)C2)ccn1
*Q* Could you tell me which of these two has the smaller IC50 figure? First: 1 Second: 2 Please identify the chosen entry by its label.
*A* 1

====

TARGET_DESC: EGFR(L858R/T790M) (Homo sapiens, UniProt P00533, L858R/T790M)
Construct: purchased from Carna (GST-a.a. 669-1210)
Sequence (P00533 669-1210 T790M/L858R): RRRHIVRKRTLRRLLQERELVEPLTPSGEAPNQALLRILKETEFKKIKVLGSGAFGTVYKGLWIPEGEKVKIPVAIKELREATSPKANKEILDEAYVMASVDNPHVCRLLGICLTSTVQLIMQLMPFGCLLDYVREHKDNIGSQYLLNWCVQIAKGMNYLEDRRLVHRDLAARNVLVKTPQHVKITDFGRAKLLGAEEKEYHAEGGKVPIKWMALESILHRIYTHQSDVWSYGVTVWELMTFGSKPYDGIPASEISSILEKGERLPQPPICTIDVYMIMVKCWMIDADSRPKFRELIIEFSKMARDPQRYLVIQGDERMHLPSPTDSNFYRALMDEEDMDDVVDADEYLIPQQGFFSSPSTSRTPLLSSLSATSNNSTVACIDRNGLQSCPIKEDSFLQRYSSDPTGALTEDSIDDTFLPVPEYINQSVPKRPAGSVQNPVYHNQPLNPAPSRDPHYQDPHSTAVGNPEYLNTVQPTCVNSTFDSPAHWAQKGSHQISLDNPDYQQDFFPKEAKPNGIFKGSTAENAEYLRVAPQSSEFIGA
PROTOCOL_DESCRIPTION: EGFR biochemical assay (HTRF), IC50 determinations
CONDITION_PARAMETERS: EGFR (L858R/T790M) with no pre-incubation; read-out: IC50 (μM) Column A
ASSAY_READOUT: IC50 (µM)

I = Cc1cccc2nc(NC(=O)c3ccco3)n(C3CCCCN(C(=O)/C=C/CN(C)C)C3)c12 (stereo not shown)
II = C=CC(=O)N1CCC[C@@H](n2c(NC(=O)c3cccc(C(F)(F)F)c3)nc3cc(CN4C[C@@H](O)[C@H](O)C4)ccc32)C1
III = C=CC(=O)N1CCCC[C@@H](n2c(NC(=O)c3ccnc(C)c3)nc3cc(CN4CC(F)C4)cc(C)c32)C1
*Q* Quick favor: sort the compounds up above by IC50, largest first. // ordering of labels required in reply
*A* II, I, III
(II: 0.69 µM, I: 0.02 µM, III: 0.002 µM)

====

TARGET_DESC: HaCaT (EGFR WT) (Homo sapiens, UniProt P00533)
Sequence (P00533 25-1210): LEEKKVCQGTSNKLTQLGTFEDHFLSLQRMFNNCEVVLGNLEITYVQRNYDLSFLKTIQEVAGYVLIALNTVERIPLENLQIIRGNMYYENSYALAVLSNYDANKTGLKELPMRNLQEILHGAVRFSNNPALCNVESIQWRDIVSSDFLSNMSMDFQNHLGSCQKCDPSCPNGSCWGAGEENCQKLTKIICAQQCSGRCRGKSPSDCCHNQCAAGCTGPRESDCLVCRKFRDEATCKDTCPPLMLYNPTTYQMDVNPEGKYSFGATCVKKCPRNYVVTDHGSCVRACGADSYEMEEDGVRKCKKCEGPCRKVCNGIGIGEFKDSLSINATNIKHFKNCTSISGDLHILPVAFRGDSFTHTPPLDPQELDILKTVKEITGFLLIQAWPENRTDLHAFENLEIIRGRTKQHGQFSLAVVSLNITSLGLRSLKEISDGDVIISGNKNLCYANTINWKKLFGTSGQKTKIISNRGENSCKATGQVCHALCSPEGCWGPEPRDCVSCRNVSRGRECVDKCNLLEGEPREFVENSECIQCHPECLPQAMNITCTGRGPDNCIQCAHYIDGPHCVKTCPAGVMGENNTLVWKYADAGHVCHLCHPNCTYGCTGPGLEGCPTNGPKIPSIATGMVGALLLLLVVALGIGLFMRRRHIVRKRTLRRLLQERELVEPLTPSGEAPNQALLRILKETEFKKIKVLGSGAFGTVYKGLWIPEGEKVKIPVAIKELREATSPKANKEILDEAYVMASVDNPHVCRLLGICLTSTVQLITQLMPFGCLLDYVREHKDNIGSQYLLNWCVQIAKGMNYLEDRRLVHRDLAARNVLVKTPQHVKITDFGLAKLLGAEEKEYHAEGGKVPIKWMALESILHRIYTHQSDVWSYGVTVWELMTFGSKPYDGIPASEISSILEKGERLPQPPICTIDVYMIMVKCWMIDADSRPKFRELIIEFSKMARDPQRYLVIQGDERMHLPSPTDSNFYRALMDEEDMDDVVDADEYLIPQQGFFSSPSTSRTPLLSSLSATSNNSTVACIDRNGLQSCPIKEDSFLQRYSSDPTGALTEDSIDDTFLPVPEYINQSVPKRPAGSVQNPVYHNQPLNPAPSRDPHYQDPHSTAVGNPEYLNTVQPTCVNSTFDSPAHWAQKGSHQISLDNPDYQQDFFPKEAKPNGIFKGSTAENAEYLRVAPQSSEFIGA
PROTOCOL_DESCRIPTION: EGFR target modulation in HaCaT (EGFR-WT) cell line (phospho-EGFR Y1173 ELISA)
CONDITION_PARAMETERS: value in parentheses
ASSAY_READOUT: IC50 (µM)

C=CC(=O)N1CCCC[C@@H](n2c(NC(=O)c3ccnc(C)c3)nc3cc(CN4CC(OC)C4)cc(C)c32)C1 | 0.038
CNC/C=C/C(=O)N1CCCC[C@@H](n2c(NC(=O)c3ccnc(C)c3)nc3cccc(Cl)c32)C1 | 0.044

====

TARGET_DESC: EGFR(L858R/T790M) (Homo sapiens, UniProt P00533, L858R/T790M)
Construct: purchased from Carna (GST-a.a. 669-1210)
PROTOCOL_DESCRIPTION: EGFR biochemical assay (HTRF), IC50 determinations
CONDITION_PARAMETERS: EGFR (L858R/T790M) with no pre-incubation; read-out: IC50 (μM) Column A
Experimental: All EGFR biochemical assays were carried out by HTRF method. […] The substrate peptide Biotin-TK-peptide was purchased from Cis-Bio. […] All reactions were carried out at room temperature in white ProxiPlate™ 384-well Plus plates (PerkinElmer) and were quenched with 5 μL of 0.2 M EDTA at 60 min. Five L of the detection reagents (2.5 ng PT66K and 0.05 μg SAXL per well) were added, the plates were incubated at room temperature for 1 h and then read in EnVision reader. […]
ASSAY_READOUT: IC50 (µM)

C=CC(=O)N1CCCC[C@@H](n2c(NC(=O)c3ccnc(C)c3)nc3cc(CN4CC(F)(F)C4)cc(C)c32)C1 | 0.002

1 = C=CC(=O)N1CCCC[C@@H](n2c(NC(=O)c3ccnc(C)c3)nc3cc(CN4CCCCC4)cc(C)c32)C1
2 = CN(C)C/C=C/C(=O)N1CCCCC(n2c(NC(=O)c3ccnc(P(C)(C)=O)c3)nc3cccc(Cl)c32)C1 (single isomer, unassigned) [Example 21-10A]
3 = Cc1cccc2nc(NC(=O)c3cccc(Cl)c3)n(C3CCCCN(C(=O)/C=C/CN(C)C)C3)c12 (stereo not shown)
4 = C/C=C/C(=O)N1CCCC[C@@H](n2c(NC(=O)c3ccnc(C)c3)nc3cc(CN4CCCC4)cc(C)c32)C1
*Q* Ascending by IC50, please. A ranking is expressed here by listing the labels in the requested order.
*A* 1, 3, 4, 2

A = C=C(CN1CCOCC1)C(=O)N1CCCC[C@@H](n2c(NC(=O)c3ccnnc3)nc3cccc(C)c32)C1
B = C=CC(=O)N1CCCCC(n2c(NC(=O)c3ccccc3)nc3cccc(C(=O)NCCC(=O)O)c32)C1 (stereo not shown)
*Q* Identify the entry with the smaller IC50: A or B . Kindly state the label of the option you pick.
*A* A
(A: 0.39 µM, B: 1.76 µM)

P = Cc1cc(C(=O)Nc2nc3cccc(C)c3n2C2CCCCN(C(=O)/C=C/CN(C)C)C2)oc1C (stereo not shown)
Q = CCOc1cc(C(=O)Nc2nc3cccc(C)c3n2C2CCCCN(C(=O)/C=C/CN(C)C)C2)ccn1 (stereo not shown)
*Q* // which entry has the larger IC50 value, P or Q ? Give the chosen item's label as your response.
*A* P
